Test system: CAL-27 cells
Assay Name: CCK-8 proliferation assay, CAL-27
Assay type: cell-based
Condition Info: Homo sapiens, CAL-27, 24 h, read-out: IC50 (range), CAL-27, CCK-8, 24 h; given as a range

Compound	IC50
Cc1ccc(-c2cc(C(F)(F)F)nn2-c2ccc(S(N)(=O)=O)cc2)cc1 [CXB, celecoxib, reference compound]	52.4 to 61.9 µM
